# Tested on: 292921-168-R-J2-PDC KRAS tumor spheroid viability;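 also: drug exposure lasted seven days after spheroids formed for three days; percent of DMSO vehicle control viability which is 100%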
# Test Description: Anticancer human tumor 292921-168-R-J2-PDC patient-derived pancreatic carcinoma cell line growth inhibition [KRAS2]
# Condition Info: second compound 3.16 µM; first compound 0.1 µM; active compounds read low; spheroids with HUVEC and MSC
viability, T/C values by entry

- Molecule: "Cn1ncnc1[C@H]1c2n[nH]c(=O)c3cc(F)cc(c23)N[C@@H]1c1ccc(F)cc1 + C=CC(=O)N1CCN(c2nc(=O)n(-c3c(C)ccnc3C(C)C)c3nc(-c4c(O)cccc4F)c(F)cc23)C(C)C1"
  viability, T/C (%): 49.2
- Molecule: "CCN1CCN(Cc2ccc(Nc3ncc(F)c(-c4cc(F)c5nc(C)n(C(C)C)c5c4)n3)nc2)CC1 + CNCc1ccccc1-c1csc(C(C)Nc2nc(C)nc3cc(OC)c(OC)cc23)c1"
  viability, T/C (%): 0.05
- Molecule: "Cn1nccc1Nc1nccc(-c2cc3c(s2)C(C)(C)N(CCN2CCOCC2)C3=O)n1 + COc1cc2nc(C)nc(NC(C)c3cc(N)cc(C(F)(F)F)c3)c2cc1OC1CCOC1"
  viability, T/C (%): 26.1
- Molecule: "CCNC(=O)CC1N=C(c2ccc(Cl)cc2)c2cc(OC)ccc2-n2c(C)nnc21 (stereo not given) + CC1OCC2(CCN(c3cnc(Sc4ccnc(N)c4Cl)c(N)n3)CC2)C1N"
  viability, T/C (%): 34.6
- Molecule: "CC1OCC2(CCN(c3cnc(Sc4ccnc(N)c4Cl)c(N)n3)CC2)C1N (stereo not given) + CNCc1ccccc1-c1csc(C(C)Nc2nc(C)nc3cc(OC)c(OC)cc23)c1"
  viability, T/C (%): 0.09
- Molecule: "CC(=O)OC12COC1CC(O)C1(C)C(=O)C(O)C3=C(C)C(OC(=O)C(O)C(NC(=O)OC(C)(C)C)c4ccccc4)CC(O)(C(OC(=O)c4ccccc4)C21)C3(C)C (stereo not given) + CNCc1ccccc1-c1csc(C(C)Nc2nc(C)nc3cc(OC)c(OC)cc23)c1"
  viability, T/C (%): 0.07
- Molecule: "CC1OCC2(CCN(c3cnc(Sc4ccnc(N)c4Cl)c(N)n3)CC2)C1N (stereo not given) + C=CC(=O)N1CCN(c2nc(=O)n(-c3c(C)ccnc3C(C)C)c3nc(-c4c(O)cccc4F)c(F)cc23)C(C)C1"
  viability, T/C (%): 57.6
- Molecule: "COC(=O)c1ccc2c(C(=Nc3ccc(N(C)C(=O)CN4CCN(C)CC4)cc3)c3ccccc3)c(O)[nH]c2c1 + CNCc1ccccc1-c1csc(C(C)Nc2nc(C)nc3cc(OC)c(OC)cc23)c1"
  viability, T/C (%): 0.23
- Molecule: "O=C(c1cc(Cc2n[nH]c(=O)c3ccccc23)ccc1F)N1CCN(C(=O)C2CC2)CC1 + CC1OCC2(CCN(c3cnc(Sc4ccnc(N)c4Cl)c(N)n3)CC2)C1N"
  viability, T/C (%): 41.3
- Molecule: "CC1(C)CCC(CN2CCN(c3ccc(C(=O)NS(=O)(=O)c4ccc(NCC5CCOCC5)c([N+](=O)[O-])c4)c(Oc4cnc5[nH]ccc5c4)c3)CC2)=C(c2ccc(Cl)cc2)C1 + COc1cc2nc(C)nc(NC(C)c3cc(N)cc(C(F)(F)F)c3)c2cc1OC1CCOC1"
  viability, T/C (%): 70.6
- Molecule: "CC1(C)CCC(CN2CCN(c3ccc(C(=O)NS(=O)(=O)c4ccc(NCC5CCOCC5)c([N+](=O)[O-])c4)c(Oc4cnc5[nH]ccc5c4)c3)CC2)=C(c2ccc(Cl)cc2)C1 + C=CC(=O)N1CCN(c2nc(=O)n(-c3c(C)ccnc3C(C)C)c3nc(-c4c(O)cccc4F)c(F)cc23)C(C)C1"
  viability, T/C (%): 80.8
- Molecule: "COc1cc(Nc2ncc3c(n2)-c2ccc(Cl)cc2C(c2c(F)cccc2OC)=NC3)ccc1C(=O)O + CC1OCC2(CCN(c3cnc(Sc4ccnc(N)c4Cl)c(N)n3)CC2)C1N"
  viability, T/C (%): 16.4
- Molecule: "CC(C)NCC(C(=O)N1CCN(c2ncnc3c2C(C)CC3O)CC1)c1ccc(Cl)cc1 (stereo not given) + CC1OCC2(CCN(c3cnc(Sc4ccnc(N)c4Cl)c(N)n3)CC2)C1N"
  viability, T/C (%): 36.5
- Molecule: "COc1cc2nccc(Oc3ccc(NC(=O)C4(C(=O)Nc5ccc(F)cc5)CC4)cc3)c2cc1OC + CC1OCC2(CCN(c3cnc(Sc4ccnc(N)c4Cl)c(N)n3)CC2)C1N"
  viability, T/C (%): 33.5
- Molecule: "CN(C)C/C=C/C(=O)Nc1cc2c(Nc3ccc(F)c(Cl)c3)ncnc2cc1O[C@H]1CCOC1 + COc1cc2nc(C)nc(NC(C)c3cc(N)cc(C(F)(F)F)c3)c2cc1OC1CCOC1"
  viability, T/C (%): 44.5
- Molecule: "CC1(C)CCC(CN2CCN(c3ccc(C(=O)NS(=O)(=O)c4ccc(NCC5CCOCC5)c([N+](=O)[O-])c4)c(Oc4cnc5[nH]ccc5c4)c3)CC2)=C(c2ccc(Cl)cc2)C1 + CNCc1ccccc1-c1csc(C(C)Nc2nc(C)nc3cc(OC)c(OC)cc23)c1"
  viability, T/C (%): 1.9
- Molecule: "CC1OCC2(CCN(c3cnc(Sc4ccnc(N)c4Cl)c(N)n3)CC2)C1N (stereo not given) + COc1cc2nc(C)nc(NC(C)c3cc(N)cc(C(F)(F)F)c3)c2cc1OC1CCOC1"
  viability, T/C (%): 42.4
- Molecule: "CN(C)C/C=C/C(=O)Nc1cc2c(Nc3ccc(F)c(Cl)c3)ncnc2cc1O[C@H]1CCOC1 + C=CC(=O)N1CCN(c2nc(=O)n(-c3c(C)ccnc3C(C)C)c3nc(-c4c(O)cccc4F)c(F)cc23)C(C)C1"
  viability, T/C (%): 53.5
- Molecule: "CCN1CCN(Cc2ccc(Nc3ncc(F)c(-c4cc(F)c5nc(C)n(C(C)C)c5c4)n3)nc2)CC1 + COc1cc2nc(C)nc(NC(C)c3cc(N)cc(C(F)(F)F)c3)c2cc1OC1CCOC1"
  viability, T/C (%): 22.9
- Molecule: "O=C(c1cc(Cc2n[nH]c(=O)c3ccccc23)ccc1F)N1CCN(C(=O)C2CC2)CC1 + C=CC(=O)N1CCN(c2nc(=O)n(-c3c(C)ccnc3C(C)C)c3nc(-c4c(O)cccc4F)c(F)cc23)C(C)C1"
  viability, T/C (%): 59.5
